- Tested on: LNCaP (p53 wild-type) cells
- Test name: Cell growth inhibition, WST-8, 4 days, LNCaP
- Setup conditions: Homo sapiens, LNCaP, 96 h, read-out: LNCaP IC50 (μM), LNCaP p53 wild-type, 4 days, WST-8; single runs and mean ± SD line
Quick reference for IC50 among some compounds
Quantity: IC50 (µM)

CC(C)(C)C[C@H]1N[C@@H](C(=O)NCC[C@H](O)CO)[C@H](c2ccc(F)c(Cl)c2)[C@@]12C(=O)Nc1cc(Cl)c(F)cc12; 0.229
COC(C)(C)C[C@H]1N[C@@H](C(=O)NCC[C@H](O)CO)[C@H](c2ccc(F)c(Cl)c2)[C@@]12C(=O)Nc1cc(Cl)c(F)cc12; 2.17
CC(C)(C)C[C@H]1N[C@@H](C(=O)NCC(=O)O)[C@H](c2ccc(F)c(Cl)c2)[C@@]12C(=O)Nc1cc(Cl)c(F)cc12; 4.52
